Reference for the values: patent US6869957B1

- experimentalSystem: NK-1 receptor (Homo sapiens)
- Construct: endogenous in cells
- Sequence (P25103 whole entry): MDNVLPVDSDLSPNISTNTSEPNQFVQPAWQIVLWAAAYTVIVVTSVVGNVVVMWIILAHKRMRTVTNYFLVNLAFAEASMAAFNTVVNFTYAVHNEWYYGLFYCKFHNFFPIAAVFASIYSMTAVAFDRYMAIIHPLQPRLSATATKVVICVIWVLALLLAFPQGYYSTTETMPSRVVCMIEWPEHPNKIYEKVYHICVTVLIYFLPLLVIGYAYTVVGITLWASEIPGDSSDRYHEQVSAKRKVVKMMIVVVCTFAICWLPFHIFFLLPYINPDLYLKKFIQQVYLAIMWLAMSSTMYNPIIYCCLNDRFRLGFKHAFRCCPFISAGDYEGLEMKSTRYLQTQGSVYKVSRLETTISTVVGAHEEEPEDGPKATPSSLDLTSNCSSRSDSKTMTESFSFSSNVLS
- experimentalProtocol: NK-1 Receptor Binding Assay (125I-labeled substance P, IM9 cells)
- condition: inhibits fifty percent of binding of 125I-substance P to IM9 cells
pIC50: −log10 of the molar value.
pIC50 values, listed per item

{"columns": ["compound", "pIC50"],
 "data": [
  ["COc1ccc2[nH]cc(CC(CN(Cc3ccccc3OC)C(C)=O)NC(=O)CN3CCN(c4ccccc4)CC3)c2c1 (centres unmarked)", 7.48],
  ["CC(NCC(Cc1c[nH]c2ccccc12)NC(=O)CN1CCC(N2CCCCC2)CC1)c1ccccc1 (centres unmarked) [Example 101]", 7.01],
  ["COc1ccccc1CN(CC(Cc1c[nH]c2ccc(Br)cc12)NC(=O)CN1CCC(N2CCCCC2)CC1)C(C)=O (centres unmarked)", 8.07],
  ["COc1cccc(CN(CC(Cc2c[nH]c3ccccc23)NC(=O)CN2CCN(c3ccccc3)CC2)C(C)=O)c1 (centres unmarked)", 8.34],
  ["COc1ccccc1CN(CC(C)(Cc1c[nH]c2ccccc12)NC(=O)CN1CCN(c2ccccc2)CC1)C(C)=O (centres unmarked)", 7.94],
  ["COc1ccccc1CN(CC(Cc1c[nH]c2ccccc12)NC(=O)CN1CCN(c2ccccc2)CC1)C(=O)COC(C)=O (centres unmarked)", 9.01],
  ["COc1ccccc1CN(CC(Cc1c[nH]c2ccccc12)NC(=O)CCc1ccccc1)C(C)=O (centres unmarked) [Example 90]", 7.19],
  ["COc1ccccc1CN(CC(Cc1ccccc1)NC(=O)CN1CCN(c2ccccc2)CC1)C(C)=O (centres unmarked)", 8.51],
  ["COc1ccccc1CN(CC(Cc1c[nH]c2ccccc12)NC(=O)CN1CCN(C(C)=O)CC1)C(C)=O (centres unmarked)", 7.42],
  ["COc1ccccc1CN(CC(Cc1c[nH]c2ccccc12)NC(=O)CCc1ccccc1)C(C)=O (centres unmarked) [Example 91]", 5.52],
  ["CC(=O)N(Cc1ccccc1Cl)CC(Cc1c[nH]c2ccccc12)NC(=O)CN1CCN(C(C)C)CC1 (centres unmarked)", 9.44],
  ["COc1ccccc1CNC[C@@H](Cc1c[nH]c2ccccc12)NC(=O)CN1CCN(c2ccccc2)CC1", 7.21],
  ["COc1ccc(CNCC(Cc2c[nH]c3ccccc23)NC(=O)CN2CCN(c3ccccc3)CC2)cc1 (centres unmarked)", 6.89],
  ["CNC(=O)N(Cc1ccccc1OC)CC(Cc1c[nH]c2ccccc12)NC(=O)CN1CCN(c2ccccc2)CC1 (centres unmarked)", 8.82],
  ["COc1ccccc1CN(CC(Cc1cn(C)c2ccccc12)NC(=O)CN1CCC(N2CCCCC2)CC1)C(C)=O (centres unmarked)", 9.03],
  ["CC(=O)N(Cc1ccccc1C(F)(F)F)CC(Cc1c[nH]c2ccccc12)NC(=O)CN1CCN(c2ccccc2)CC1 (centres unmarked)", 8.68],
  ["COc1ccccc1CN(CC(Cc1c[nH]c2ccccc12)NC(C)=O)C(C)=O (centres unmarked)", 7.17],
  ["CC(=O)NC(Cc1c[nH]c2ccccc12)CN(CCc1ccccc1)C(=O)CN1CCN(c2ccccc2)CC1 (centres unmarked)", 6.83],
  ["COc1ccccc1CNCC(Cc1c[nH]c2ccc(OCc3ccccc3)cc12)NC(=O)CN1CCN(c2ccccc2)CC1 (centres unmarked)", 6.57],
  ["COc1ccccc1CN(CC(Cc1c[nH]c2ccccc12)NC(=O)CCc1ccccc1)C(C)=O (racemic) [Example 89]", 6.77],
  ["COc1ccccc1CN(CC(Cc1c[nH]c2ccc(OCc3ccccc3)cc12)NC(=O)CN1CCN(c2ccccc2)CC1)C(C)=O (centres unmarked)", 6.51],
  ["CC(=O)N(CCc1ccccc1)CC(Cc1c[nH]c2ccccc12)NC(=O)CN1CCN(c2ccccc2)CC1 (centres unmarked)", 6.75],
  ["COc1ccccc1CN(CC(Cc1c[nH]c2ccccc12)NC(=O)CN1CCC(N(C)C)CC1)C(C)=O (centres unmarked)", 8.34],
  ["COc1ccccc1CN(CC(Cc1c[nH]c2ccccc12)NC(=O)CSc1ccccc1)C(C)=O (centres unmarked)", 6.82],
  ["O=C(CN1CCN(c2ccccc2)CC1)NC(CNCc1ccccc1)Cc1c[nH]c2ccccc12 (centres unmarked)", 7.28],
  ["COc1ccccc1CN(CC(Cc1csc2ccccc12)NC(=O)CN1CCN(c2ccccc2)CC1)C(C)=O (centres unmarked)", 8.10]
]}
